- Species: Cavia porcellus
- assayExplanation: Ototoxicity assessed as cochlear inner cells damage in Albino guinea pig with transtympanic application in right ear relative to left ear control
- Assay type: toxicity, organism-based
- Design: concentration or dose not given beside the values
- setupConditions: other
metricName: Activity (%)
Reply with just the number (in %).

Task: Annotate the compound NC[C@H]1O[C@H](O[C@H]2[C@H](O)[C@@H](O)[C@H](N)C[C@@H]2N)[C@H](N)[C@@H](O)[C@@H]1O with its measured Activity.
Result: 0

Task: Provide measured Activity value, entry: COc1ccc(/C=N\[C@H]2[C@@H](O[C@@H]3[C@@H](O)[C@H](O)[C@@H](/N=C/c4ccc(OC)cc4)C[C@H]3/N=C/c3ccc(OC)cc3)O[C@H](C/N=C/c3ccc(OC)cc3)[C@@H](O)[C@@H]2O)cc1
Result: 100

Task: Annotate the compound NC[C@@H]1O[C@H](O[C@H]2[C@@H](O)[C@H](O[C@@H]3[C@@H](O)[C@H](N)C[C@H](N)[C@H]3O[C@H]3O[C@H](CN)[C@@H](O)[C@H](O)[C@H]3N)O[C@@H]2CO)[C@H](N)[C@@H](O)[C@@H]1O with its measured Activity.
Result: 0

====

- Organism: Cavia porcellus
- assayExplanation: Ototoxicity assessed as cochlear outer cells damage in Albino guinea pig with transtympanic application in right ear relative to left ear control
- Format: toxicity, organism-based
- Parameters: concentration or dose not given beside the values
- setupConditions: other
Kindly supply the reported Activity values for the records listed here.
Reply numerically in %, unit not repeated.

Task: Look up and report measured Activity for this entry: N[C@@H]1C[C@H](N)[C@@H](O)[C@H](O)[C@H]1O
Result: 0

Task: Retrieve Activity measured for NC[C@H]1O[C@H](O[C@H]2[C@H](O)[C@@H](O)[C@H](N)C[C@@H]2N)[C@H](N)[C@@H](O)[C@@H]1O and print it.
Result: 100

Task: Recall and state the measured Activity for NC[C@@H]1O[C@H](O[C@H]2[C@@H](O)[C@H](O[C@@H]3[C@@H](O)[C@H](N)C[C@H](N)[C@H]3O[C@H]3O[C@H](CN)[C@@H](O)[C@H](O)[C@H]3N)O[C@@H]2CO)[C@H](N)[C@@H](O)[C@@H]1O .
Result: 100

Task: Specify measured Activity for COc1ccc(/C=N\[C@H]2[C@@H](O[C@@H]3[C@@H](O)[C@H](O)[C@@H](/N=C/c4ccc(OC)cc4)C[C@H]3/N=C/c3ccc(OC)cc3)O[C@H](C/N=C/c3ccc(OC)cc3)[C@@H](O)[C@@H]2O)cc1 .
Result: 0

Task: Tell us which Activity value is on record for COC(=O)NC[C@H]1O[C@H](O[C@@H]2[C@@H](O)[C@H](O)[C@@H](NC(=O)OC)C[C@H]2NC(=O)OC)[C@H](NC(=O)OC)[C@@H](O)[C@@H]1O
Result: 0

====

- Organism: Cavia porcellus
- assayExplanation: Ototoxicity assessed as vestibular damage in Albino guinea pig with transtympanic application in right ear relative to left ear control
- Type: toxicity, organism-based
- Parameters: concentration or dose not given beside the values
- setupConditions: in vivo, other
metricName: Activity (%)
Give a bare numeral; the unit % is implied.

Task: Please give the documented Activity of NC[C@@H]1O[C@H](O[C@H]2[C@@H](O)[C@H](O[C@@H]3[C@@H](O)[C@H](N)C[C@H](N)[C@H]3O[C@H]3O[C@H](CN)[C@@H](O)[C@H](O)[C@H]3N)O[C@@H]2CO)[C@H](N)[C@@H](O)[C@@H]1O
Result: 50

Task: Identify the reported Activity for the following entry. NC[C@H]1O[C@H](O[C@H]2[C@H](O)[C@@H](O)[C@H](N)C[C@@H]2N)[C@H](N)[C@@H](O)[C@@H]1O
Result: 100

Task: For the compound COc1ccc(/C=N\[C@H]2[C@@H](O[C@@H]3[C@@H](O)[C@H](O)[C@@H](/N=C/c4ccc(OC)cc4)C[C@H]3/N=C/c3ccc(OC)cc3)O[C@H](C/N=C/c3ccc(OC)cc3)[C@@H](O)[C@@H]2O)cc1 , report Activity.
Result: 0

Task: State its Activity for this compound: O=C(NC[C@H]1O[C@H](O[C@@H]2[C@@H](O)[C@H](O)[C@@H](NC(=O)OCc3ccccc3)C[C@H]2NC(=O)OCc2ccccc2)[C@H](NC(=O)OCc2ccccc2)[C@@H](O)[C@@H]1O)OCc1ccccc1
Result: 0

Task: Name the recorded Activity of the compound listed here: COC(=O)NC[C@H]1O[C@H](O[C@@H]2[C@@H](O)[C@H](O)[C@@H](NC(=O)OC)C[C@H]2NC(=O)OC)[C@H](NC(=O)OC)[C@@H](O)[C@@H]1O
Result: 0

Task: # return recorded Activity for entry N[C@@H]1C[C@H](N)[C@@H](O)[C@H](O)[C@H]1O
Result: 0

Task: Given CC(=O)NC[C@H]1O[C@H](O[C@@H]2[C@@H](O)[C@H](O)[C@@H](NC(C)=O)C[C@H]2NC(C)=O)[C@H](NC(C)=O)[C@@H](O)[C@@H]1O , respond with its Activity.
Result: 0

Task: Supply recorded Activity for COC1OC[C@@H](O)[C@@H](O[C@H]2O[C@@H](CN)[C@@H](O)[C@H](O)[C@H]2N)[C@H]1O (stereo partly drawn) [METHYL-NEOBIOSAMINIDE B] here.
Result: 100

====

- Species on record: Cavia porcellus
- assayExplanation: Ototoxicity assessed as cochlear outer cells damage in Albino guinea pig with transtympanic application in right ear relative to left ear control
- Type: toxicity, organism-based
- Design: concentration or dose not given beside the values
- setupConditions: other
metricName: Activity (%)
Write the value in % as a bare number.

Task: Quote Activity reported for COC1OC[C@@H](O)[C@@H](O[C@H]2O[C@@H](CN)[C@@H](O)[C@H](O)[C@H]2N)[C@H]1O (stereo partly drawn) [METHYL-NEOBIOSAMINIDE B] please.
Result: 0

Task: Determine its reported Activity: CC(=O)NC[C@H]1O[C@H](O[C@@H]2[C@@H](O)[C@H](O)[C@@H](NC(C)=O)C[C@H]2NC(C)=O)[C@H](NC(C)=O)[C@@H](O)[C@@H]1O
Result: 0

Task: Return the recorded Activity value; entry: O=C(NC[C@H]1O[C@H](O[C@@H]2[C@@H](O)[C@H](O)[C@@H](NC(=O)OCc3ccccc3)C[C@H]2NC(=O)OCc2ccccc2)[C@H](NC(=O)OCc2ccccc2)[C@@H](O)[C@@H]1O)OCc1ccccc1
Result: 100
